Measurement Target: human recombinant 15-PGDH (Homo sapiens)
Sequence (P15428 whole entry): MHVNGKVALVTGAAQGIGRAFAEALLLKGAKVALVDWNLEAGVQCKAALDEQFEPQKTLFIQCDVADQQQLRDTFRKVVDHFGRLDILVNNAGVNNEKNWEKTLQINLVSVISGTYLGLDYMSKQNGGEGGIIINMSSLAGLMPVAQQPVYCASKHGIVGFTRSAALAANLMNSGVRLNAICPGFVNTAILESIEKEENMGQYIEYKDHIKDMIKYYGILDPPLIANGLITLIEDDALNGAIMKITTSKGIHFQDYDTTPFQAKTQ
Method: Recombinant 15-PGDH enzymatic inhibition assay (PGDH-Lumi, NADH signal)
Measurement Context: recombinant 15-PGDH; 15 min pre-incubation, 60 min reaction with PGE2 and NAD+, NADH signal
pIC50: −log10 of the molar value.
pIC50: recorded values
Measure: pIC50

INSERT INTO results (molecule, measure, result) VALUES
  ('Cn1cc2cc(-c3ccc4cc(C5(O)CC5)sc4n3)cnc2n1 [Compound C60]', 'pIC50', 7.28),
  ('Cn1cc2cc(-c3cc(C4CC4)c4cc(C(O)C5CCC5)sc4n3)cnc2n1 (single isomer, unassigned) [Compound B8]', 'pIC50', 9.41),
  ('Cc1c2ccc(-c3cnc4nn(C)cc4c3)nc2sc1[C@]1(O)C[C@@H](C(F)F)C1 [Compound C83C]', 'pIC50', 8.27),
  ('CC(O)c1cc2c(C3CC3)cc(-c3cnc4nn(C)cc4c3)nc2s1 (stereo not shown) [Compound B11]', 'pIC50', 8.15),
  ('Cn1cc2cc(-c3ccc4cc(C(O)C5CCCC5)sc4c3)cnc2n1 (stereo not shown) [Compound B58]', 'pIC50', 9.31),
  ('OC1(c2cc3ccc(-c4cncnc4)nc3s2)CC(F)(F)C1 [Compound C46]', 'pIC50', 7.58),
  ('COCCC(O)c1cc2ccc(-c3cnc4nn(C)cc4c3)nc2s1 (stereo not shown) [Compound B29]', 'pIC50', 9.42);
